# Tested on: Pseudomonas aeruginosa
# run_description: Antibacterial activity against Pseudomonas aeruginosa ATCC 27853 assessed as reduction in bacterial growth incubated for 18 hrs by CLSI-based Mueller-Hinton broth dilution method
# Type: functional
measured_attribute: MIC
Quick note: number first, unit second.

compound_structure_string: CCCCCCCCCCC(=O)NCCCC[C@@H](NC(=O)[C@H](CC(C)C)NC(=O)[C@H](CC(C)C)NC(=O)CN)C(=O)N[C@@H](CCCNC(=N)N)C(=O)N[C@H](C(=O)N[C@H](CCCCN)C(=O)N[C@H](C(=O)N[C@@H](CC(C)C)C(=O)N[C@@H](CC(C)C)C(N)=O)[C@@H](C)O)[C@@H](C)CC
MIC: 8 µM

Problem: # value lookup — system Pseudomonas aeruginosa, readout MIC, item CCCCCCCCCCCCCCC(=O)NCCCC[C@@H](NC(=O)[C@H](CC(C)C)NC(=O)[C@H](CC(C)C)NC(=O)CN)C(=O)N[C@@H](CCCNC(=N)N)C(=O)N[C@H](C(=O)N[C@H](CCCCN)C(=O)N[C@H](C(=O)N[C@@H](CC(C)C)C(=O)N[C@@H](CC(C)C)C(N)=O)[C@@H](C)O)[C@@H](C)CC
Result: 16 µM

---

Below: a set of entries, each annotated with reported MIC.
# Test system: Escherichia coli
# run_description: Antibacterial activity against Escherichia coli ATCC 25922 assessed as reduction in bacterial cell growth measured for 18 hrs by Mueller-Hinton broth based two-fold serial dilution method
# Assay type: functional
Square brackets hold non-standard residues; d marks the D form. Peptide text beside a SMILES is read from it. * marks the point of attachment. Pentadecanoyl = CCCCCCCCCCCCCCC(=O)*; NMeI = CC[C@H](C)[C@H](NC)C(=O)O; Tridecanoyl = CCCCCCCCCCCCC(=O)*; NMeL = CN[C@@H](CC(C)C)C(=O)O; Undecanoyl = CCCCCCCCCCC(=O)*; NMeK = CN[C@@H](CCCCN)C(=O)O; Nonanoyl = CCCCCCCCC(=O)*
Report the value in µM with no unit label.

molecule: CCCCCCCCCCC(=O)NCC(=O)N[C@@H](CC(C)C)C(=O)N[C@@H](CC(C)C)C(=O)N(C)[C@@H](CCCCN)C(=O)N[C@@H](CCCNC(=N)N)C(=O)N[C@H](C(=O)N(C)[C@@H](CCCCN)C(=O)N[C@H](C(=O)N[C@@H](CC(C)C)C(=O)N[C@@H](CC(C)C)C(N)=O)[C@@H](C)O)[C@@H](C)CC (Undecanoyl-GLL[NMeK]RI[NMeK]TLL-NH2)
MIC (µM): 32
//
molecule: CCCCCCCCCCCCC(=O)NCC(=O)N[C@@H](CC(C)C)C(=O)N[C@@H](CC(C)C)C(=O)N[C@@H](CCCCN)C(=O)N[C@@H](CCCNC(=N)N)C(=O)N[C@H](C(=O)N[C@@H](CCCCN)C(=O)N[C@H](C(=O)N[C@@H](CC(C)C)C(=O)N[C@@H](CC(C)C)C(N)=O)[C@@H](C)O)[C@@H](C)CC (Tridecanoyl-GLLKRIKTLL-NH2)
MIC (µM): 8
//
molecule: CCCCCCCCCCC(=O)NCC(=O)N[C@@H](CC(C)C)C(=O)N(C)[C@@H](CC(C)C)C(=O)N[C@@H](CCCCN)C(=O)N[C@@H](CCCNC(=N)N)C(=O)N(C)[C@H](C(=O)N[C@@H](CCCCN)C(=O)N[C@H](C(=O)N[C@@H](CC(C)C)C(=O)N[C@@H](CC(C)C)C(N)=O)[C@@H](C)O)[C@@H](C)CC (Undecanoyl-GL[NMeL]KR[NMeI]KTLL-NH2)
MIC (µM): 16
//
molecule: CCCCCCCCC(=O)NCC(=O)N[C@@H](CC(C)C)C(=O)N(C)[C@@H](CC(C)C)C(=O)N[C@@H](CCCCN)C(=O)N[C@@H](CCCNC(=N)N)C(=O)N(C)[C@H](C(=O)N[C@@H](CCCCN)C(=O)N[C@H](C(=O)N[C@@H](CC(C)C)C(=O)N[C@@H](CC(C)C)C(N)=O)[C@@H](C)O)[C@@H](C)CC (Nonanoyl-GL[NMeL]KR[NMeI]KTLL-NH2)
MIC (µM): 128
//
molecule: CCCCCCCCCCCCCCC(=O)NCC(=O)N[C@@H](CC(C)C)C(=O)N(C)[C@@H](CC(C)C)C(=O)N[C@@H](CCCCN)C(=O)N[C@@H](CCCNC(=N)N)C(=O)N(C)[C@H](C(=O)N[C@@H](CCCCN)C(=O)N[C@H](C(=O)N[C@@H](CC(C)C)C(=O)N[C@@H](CC(C)C)C(N)=O)[C@@H](C)O)[C@@H](C)CC (Pentadecanoyl-GL[NMeL]KR[NMeI]KTLL-NH2)
MIC (µM): 16
//
molecule: CCCCCCCCCCCCC(=O)NCC(=O)N[C@@H](CC(C)C)C(=O)N(C)[C@@H](CC(C)C)C(=O)N[C@@H](CCCCN)C(=O)N[C@@H](CCCNC(=N)N)C(=O)N(C)[C@H](C(=O)N[C@@H](CCCCN)C(=O)N[C@H](C(=O)N[C@@H](CC(C)C)C(=O)N[C@@H](CC(C)C)C(N)=O)[C@@H](C)O)[C@@H](C)CC (Tridecanoyl-GL[NMeL]KR[NMeI]KTLL-NH2)
MIC (µM): 8

Kindly review the next molecule as well.
Problem: # value lookup — system Escherichia coli, readout MIC, item CCCCCCCCCCCCC(=O)NCC(=O)N[C@@H](CC(C)C)C(=O)N[C@@H](CC(C)C)C(=O)N(C)[C@@H](CCCCN)C(=O)N[C@@H](CCCNC(=N)N)C(=O)N[C@H](C(=O)N(C)[C@@H](CCCCN)C(=O)N[C@H](C(=O)N[C@@H](CC(C)C)C(=O)N[C@@H](CC(C)C)C(N)=O)[C@@H](C)O)[C@@H](C)CC (Tridecanoyl-GLL[NMeK]RI[NMeK]TLL-NH2)
Result: 16

---

# run_description: Hemolytic activity in mouse RBC incubated for 1 hr
# Type: toxicity, cell-based, Erythrocyte
# particulars: red blood cells
Square brackets hold non-standard residues; d marks the D form. Peptide text beside a SMILES is read from it. hIle = CC[C@H](C)C[C@H](N)C(=O)O; Cha = N[C@@H](CC1CCCCC1)C(=O)O
Below: a set of entries, each annotated with reported HC50 at 1 h.

Previously resolved entries follow.
compound: CC(C)C[C@H](NC(=O)[C@H](CC(C)C)NC(=O)[C@H](CCCCN)NC(=O)[C@H](CCCCN)NC(=O)[C@H](Cc1c[nH]c2ccccc12)NC(=O)[C@H](Cc1c[nH]c2ccccc12)NC(=O)[C@H](CCCCN)NC(=O)[C@H](CC(C)C)NC(=O)[C@H](CC(C)C)NC(=O)[C@@H](N)CCCCN)C(N)=O (H-KLLKWWKKLL-NH2)
HC50 at 1 h: > 200 µM
//
compound: CC(C)C[C@H](NC(=O)[C@H](CC(C)C)NC(=O)[C@H](CCCCN)NC(=O)[C@H](CCCCN)NC(=O)[C@H](Cc1c[nH]c2ccccc12)NC(=O)[C@H](CCCNC(=N)N)NC(=O)[C@H](CCCCN)NC(=O)[C@H](CC(C)C)NC(=O)[C@H](CC(C)C)NC(=O)[C@@H](N)Cc1c[nH]c2ccccc12)C(N)=O
HC50 at 1 h: > 200 µM

Problem: Consider the compound CC[C@H](C)C[C@H](NC(=O)[C@H](CCCNC(=N)N)NC(=O)[C@H](CCCCN)NC(=O)[C@H](CC(C)C)NC(=O)[C@H](CC1CCCCC1)NC(=O)CN)C(=O)N[C@@H](CCCCN)C(=O)N[C@H](C(=O)N[C@@H](CC(C)C)C(=O)N[C@@H](CC1CCCCC1)C(N)=O)[C@@H](C)O (H-G[Cha]LKR[hIle]KTL[Cha]-NH2) and give its measured HC50 at 1 h.
Result: 31.2 µM

---

# run_description: Hemolytic activity in human RBC
# Format: toxicity, cell-based, Erythrocyte
# particulars: red blood cells
Square brackets hold non-standard residues; d marks the D form. Peptide text beside a SMILES is read from it. Cha = N[C@@H](CC1CCCCC1)C(=O)O
measured_attribute: HC50 (µM)
Report the value in µM with no unit label.

Previously resolved entries follow.
compound: CC[C@H](C)[C@H](NC(=O)[C@H](CCCCN)NC(=O)[C@H](CCCCN)NC(=O)[C@H](CC(C)C)NC(=O)[C@H](CC1CCCCC1)NC(=O)CN)C(=O)N[C@@H](CCCCN)C(=O)N[C@@H](CCCCN)C(=O)N[C@@H](CC(C)C)C(=O)N[C@@H](CC1CCCCC1)C(N)=O (H-G[Cha]LKKIKKL[Cha]-NH2)
measured_attribute: HC50
unit_text: µM
value_reported: 0.5
//
compound: CC[C@H](C)[C@H](NC(=O)[C@H](Cc1ccccc1)NC(=O)[C@H](CCCCN)NC(=O)[C@H](CC(C)C)NC(=O)[C@H](CC(C)C)NC(=O)CN)C(=O)N[C@@H](CCCCN)C(=O)N[C@H](C(=O)N[C@@H](CC(C)C)C(=O)N[C@@H](CC(C)C)C(N)=O)[C@@H](C)O (H-GLLKFIKTLL-NH2)
measured_attribute: HC50
unit_text: µM
value_reported: 67.3

Kindly review the next compound as well.
Problem: Consider the compound CC[C@H](C)[C@H](NC(=O)[C@H](CCCNC(=N)N)NC(=O)[C@H](CCCCN)NC(=O)[C@H](CC(C)C)NC(=O)[C@H](CC(C)C)NC(=O)CN)C(=O)N[C@@H](C)C(=O)N[C@H](C(=O)N[C@@H](CC(C)C)C(=O)N[C@@H](CC(C)C)C(N)=O)[C@@H](C)O (H-GLLKRIATLL-NH2) and give its measured HC50.
Result: 121

src = ChEMBL document CHEMBL5608163
